System: HCC1569;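 further: TDF is a line of transformed human dermal fibroblasts of mesenchymal origin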
procedure.text: H1.0 immunofluorescence intensity relative to DMSO (% of DMSO); higher = stronger H1.0 induction, active = 140 or more
condition.notes: concentration: 10 µM; 24 h
Assign rule met whenever H1.0 immunofluorescence intensity does not fall below 100; assign rule not met whenever it does.

Consider the worked cases shown below.
Is H1.0 immunofluorescence intensity at least 100? Consider CCSC(N)=Nc1ccc(C(F)(F)F)cc1.Cl [TFPI hydrochloride]
rule met

Could you please find out whether Fc1ccc(-c2nc3n(c2-c2ccncc2)CCS3)cc1 has H1.0 immunofluorescence intensity that meets 100 or exceeds it?
rule met

Tell me whether H1.0 immunofluorescence intensity is at least 100 here: CC(C)NCC(O)COc1ccc(CC(N)=O)cc1 (stereo not drawn) [R(+)-Atenolol]
rule not met

Please turn your attention to the following entry.
Is it the case that CC(C)(Sc1cc(C(C)(C)C)c(O)c(C(C)(C)C)c1)Sc1cc(C(C)(C)C)c(O)c(C(C)(C)C)c1 has H1.0 immunofluorescence intensity reaching or exceeding 100?
rule not met
